Source of measurements: patent US8722884B2

Test: Solubility in aqueous media and organic solvents
Type: physicochemical
Settings: aqueous buffer; heading: Solubility in unbuffered water; unbuffered water, pH 2.65
Measurement kind: solubility (µg/mL)

[[record]]
mol = "CN(c1ncccc1CNc1nc(Nc2ccc3c(c2)CC(=O)N3)ncc1C(F)(F)F)S(C)(=O)=O"
measurement_kind = "solubility"
measured_value = 369


###

# maps each entry to its Hygroscopicity (by weight) at 90% relative humidity at ambient temperature
Assay: VTI moisture adsorption/desorption (hygroscopicity)
Assay type: physicochemical
Conditions: 90% RH, ambient temperature
Measurement kind: Hygroscopicity (by weight) at 90% relative humidity at ambient temperature (%)

[[record]]
molecule = "CN(c1ncccc1CNc1nc(Nc2ccc3c(c2)CC(=O)N3)ncc1C(F)(F)F)S(C)(=O)=O [Example 4]"
measured_value = 0.6

[[record]]
molecule = "CN(c1ncccc1CNc1nc(Nc2ccc3c(c2)CC(=O)N3)ncc1C(F)(F)F)S(C)(=O)=O [Example 6]"
measured_value = 1.4

[[record]]
molecule = "CN(c1ncccc1CNc1nc(Nc2ccc3c(c2)CC(=O)N3)ncc1C(F)(F)F)S(C)(=O)=O [Example 2]"
measured_value = 0.16

[[record]]
molecule = "CN(c1ncccc1CNc1nc(Nc2ccc3c(c2)CC(=O)N3)ncc1C(F)(F)F)S(C)(=O)=O [Example 5]"
measured_value = 2.7

[[record]]
molecule = "CN(c1ncccc1CNc1nc(Nc2ccc3c(c2)CC(=O)N3)ncc1C(F)(F)F)S(C)(=O)=O [Example 3]"
measured_value = 1.4

